Plant response rating, Barnyardgrass listing for selected compounds.
Test system: barnyardgrass
METHOD_DESCRIPTION: Test B preemergence/postemergence greenhouse plant response rating 0 to 10
Format: in vivo, Echinochloa crus-galli
TEST_CONDITIONS: POSTEMERGENCE, Rate 50 g/ha; 0 to 10 scale

>  <COMPOUND>
CC(C)OC(=O)COc1cc(-c2nn3c(c2Cl)CCCC3)c(F)cc1Cl [Compound 39]

>  <STUDY_TARGET>
barnyardgrass

>  <Plant response rating, Barnyardgrass>
4

$$$$
>  <COMPOUND>
C#CCN1C(=O)COc2cc(F)c(-c3nn4c(c3Cl)CCCC4)cc21 [Compound 34]

>  <STUDY_TARGET>
barnyardgrass

>  <Plant response rating, Barnyardgrass>
5

$$$$
>  <COMPOUND>
CCCN1C(=O)COc2cc(F)c(-c3nn4c(c3Br)CCCC4)cc21 [Compound 63]

>  <STUDY_TARGET>
barnyardgrass

>  <Plant response rating, Barnyardgrass>
5

$$$$
>  <COMPOUND>
C#CC(C)Oc1cc(-c2nn3c(c2Br)CCCC3)c(F)cc1Cl (centres unmarked) [Compound 66]

>  <STUDY_TARGET>
barnyardgrass

>  <Plant response rating, Barnyardgrass>
5

$$$$
>  <COMPOUND>
C=C(Cl)COc1cc(-c2nn3c(c2Cl)CCCC3)c(F)cc1Cl [Compound 40]

>  <STUDY_TARGET>
barnyardgrass

>  <Plant response rating, Barnyardgrass>
4

$$$$
>  <COMPOUND>
Oc1cc(-c2nn3c(c2Br)CCCC3)c(F)cc1Cl [Compound 81]

>  <STUDY_TARGET>
barnyardgrass

>  <Plant response rating, Barnyardgrass>
8

$$$$
>  <COMPOUND>
Clc1cc(Cl)c(-c2nn3c(c2Cl)CCCC3)cc1OCC1CC1 [Compound 69]

>  <STUDY_TARGET>
barnyardgrass

>  <Plant response rating, Barnyardgrass>
4

$$$$
>  <COMPOUND>
Fc1cc(Cl)ccc1-c1nn2c(c1Br)CCCC2 [Compound 52]

>  <STUDY_TARGET>
barnyardgrass

>  <Plant response rating, Barnyardgrass>
9

$$$$
>  <COMPOUND>
COC(=O)c1cc(-c2nn3c(c2Cl)CCCC3)c(F)cc1Cl [Compound 43]

>  <STUDY_TARGET>
barnyardgrass

>  <Plant response rating, Barnyardgrass>
7

$$$$
>  <COMPOUND>
C#CC(C)Oc1cc(-c2nn3c(c2Cl)CCCC3)c(F)cc1Cl (centres unmarked) [Compound 36]

>  <STUDY_TARGET>
barnyardgrass

>  <Plant response rating, Barnyardgrass>
6

$$$$
>  <COMPOUND>
COCN1C(=O)COc2cc(F)c(-c3nn4c(c3Br)CCCC4)cc21 [Compound 67]

>  <STUDY_TARGET>
barnyardgrass

>  <Plant response rating, Barnyardgrass>
6

$$$$
>  <COMPOUND>
CC(C)OC(=O)c1cc(-c2nn3c(c2Cl)CCCC3)c(F)cc1Cl [Compound 44]

>  <STUDY_TARGET>
barnyardgrass

>  <Plant response rating, Barnyardgrass>
8

$$$$
>  <COMPOUND>
O=C1COc2cc(F)c(-c3nn4c(c3Br)CCCC4)cc2N1 [Compound 80]

>  <STUDY_TARGET>
barnyardgrass

>  <Plant response rating, Barnyardgrass>
6

$$$$
>  <COMPOUND>
C=CCOc1cc(-c2nn3c(c2Cl)CCCC3)c(Cl)cc1Cl [Compound 71]

>  <STUDY_TARGET>
barnyardgrass

>  <Plant response rating, Barnyardgrass>
6

$$$$
